Data origin, for the record: ChEMBL document CHEMBL5036320

test name: Clearance in Beagle dog blood at 3 mg/kg, po or 0.46 mg/kg, iv after 48 hrs by LC-MS/MS analysis
Assay type: ADME, organism-based, Canis lupus familiaris
readout type: clearance

Short answer for COc1nc(C(=O)NC[C@](C)(O)C(F)(F)F)c(N)cc1C(F)(F)F [ICENTICAFTOR] : clearance was 41 mL/min/kg

====

test name: Oral bioavailability in Sprague-Dawley rat at 5 mg/kg measured upto 48 hrs by LC-MS/MS analysis
Type: ADME, organism-based
measurement context: in vivo
readout type: bioavailability (%)
Answers are plain numbers, in %.

The molecule COC(=O)c1cc(-c2ccco2)c(C(F)(F)F)cc1N showed bioavailability equal to 15
